Each item that follows carries a reported GI50.
systemUnderTest: Her2 Exon 20 INSYVMA Ba/F3 (Homo sapiens, UniProt P04626, DUP772-775, cells depend on it)
Sequence (P04626 with tags, fused parts or gaps DUP772-775): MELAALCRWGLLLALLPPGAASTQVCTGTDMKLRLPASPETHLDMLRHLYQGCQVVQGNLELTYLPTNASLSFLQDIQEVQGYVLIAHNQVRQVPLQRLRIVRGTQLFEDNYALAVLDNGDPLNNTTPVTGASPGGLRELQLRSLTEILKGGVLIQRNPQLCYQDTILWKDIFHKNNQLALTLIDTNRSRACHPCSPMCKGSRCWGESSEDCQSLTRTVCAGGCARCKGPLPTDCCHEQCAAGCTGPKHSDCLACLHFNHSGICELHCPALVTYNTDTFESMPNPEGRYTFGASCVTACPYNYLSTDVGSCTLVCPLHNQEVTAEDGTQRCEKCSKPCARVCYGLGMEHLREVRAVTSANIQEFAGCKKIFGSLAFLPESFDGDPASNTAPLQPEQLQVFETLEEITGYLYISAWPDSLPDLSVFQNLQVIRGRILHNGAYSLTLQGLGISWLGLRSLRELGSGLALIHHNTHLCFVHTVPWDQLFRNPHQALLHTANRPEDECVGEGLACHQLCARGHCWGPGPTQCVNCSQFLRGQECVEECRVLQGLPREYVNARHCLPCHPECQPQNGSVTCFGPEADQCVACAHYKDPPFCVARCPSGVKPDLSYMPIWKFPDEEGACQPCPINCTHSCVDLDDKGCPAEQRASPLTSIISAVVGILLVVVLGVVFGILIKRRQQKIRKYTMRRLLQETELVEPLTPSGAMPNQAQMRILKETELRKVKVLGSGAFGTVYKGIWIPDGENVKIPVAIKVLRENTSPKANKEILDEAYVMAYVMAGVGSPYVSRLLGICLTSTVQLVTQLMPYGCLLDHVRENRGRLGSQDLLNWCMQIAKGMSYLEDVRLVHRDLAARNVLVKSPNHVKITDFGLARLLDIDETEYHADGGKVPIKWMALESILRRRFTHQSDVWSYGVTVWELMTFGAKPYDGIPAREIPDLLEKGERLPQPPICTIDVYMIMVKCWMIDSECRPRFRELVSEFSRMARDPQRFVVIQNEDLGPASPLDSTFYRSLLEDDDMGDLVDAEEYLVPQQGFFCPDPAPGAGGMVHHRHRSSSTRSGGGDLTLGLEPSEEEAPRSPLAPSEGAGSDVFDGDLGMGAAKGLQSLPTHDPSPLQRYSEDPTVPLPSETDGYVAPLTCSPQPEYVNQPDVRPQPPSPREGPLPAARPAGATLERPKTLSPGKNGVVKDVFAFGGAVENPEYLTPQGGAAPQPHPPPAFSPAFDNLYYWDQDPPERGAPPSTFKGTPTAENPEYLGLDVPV
experimentalProtocol: Her2 Exon 20 INSYVMA Ba/F3 CellTiter-Glo
Type: cell-based
conditionSet: CellTiter-Glo, 72 h, read-out: Her2 Exon 20 INSYVMA Ba/F3 CTG IC50

Please review the following examples before continuing.
C=CC(=O)Nc1cc(-c2c(-c3ccc(N4CCN(C)CC4)cc3)[nH]c3ncc(C(=O)OC(C)C)cc23)c(C)cc1C [Example 202] = 1 to 10 µM
C=CC(=O)Nc1cc(-c2c(-c3ccc(C4CCN(C)CC4)cc3)[nH]c3nccc(OCC)c23)ccc1C [Example 147, 2,2,2-trifluoroacetate] = 0.5 to 1 µM
C=CC(=O)Nc1cc(-c2c(-c3ccc(N4CCN(C)CC4)cc3OC)[nH]c3nccc(Cl)c23)ccc1C [Example 21] = 0.5 to 1 µM
C=CC(=O)Nc1cc(-c2c(-c3cccc(C(=O)N4CCOCC4)c3)[nH]c3nccc(Cl)c23)ccc1C [Example 27] = 1 to 10 µM

response.value for C=CC(=O)N1CCOc2ccc(-c3c(-c4ccc(N(C)CCN(C)C)cc4)[nH]c4nccc(Cl)c34)cc21 [Example 84] (field: GI50) = 0.1 to 0.5 µM

So for C=CC(=O)Nc1cc(-c2c(-c3cccc(C(=O)N4CCN(C(C)=O)CC4)c3)[nH]c3nccc(Cl)c23)ccc1C [Example 52] , the logged GI50 turned out to be 1 to 10 µM

In plain terms, C=CC(=O)Nc1cc(-c2c(-c3ccc(N4CCN(C)CC4)cc3)[nH]c3ncc(C(=O)NCC4CCN(C)CC4)cc23)ccc1C [Example 129] has a documented GI50 of > 10 µM

Lookup result for C=CC(=O)Nc1cc(-c2c(-c3ccc(N4CCN(C)CC4)c(F)c3)[nH]c3ncc(C(=O)OC(C)C)cc23)ccc1C [Example 164] ; measured GI50: 0.1 to 0.5 µM

----------
systemUnderTest: Her2 Exon 20 INSYVMA Ba/F3 (Homo sapiens, UniProt P04626, DUP772-775, cells depend on it)
experimentalProtocol: Her2 Exon 20 INSYVMA Ba/F3 CellTiter-Glo
Type: cell-based
conditionSet: CellTiter-Glo, 72 h, read-out: Her2 Exon 20 INSYVMA Ba/F3 CTG IC50
endpointLabel: GI50

C=CC(=O)Nc1cc(-c2c(-c3cccc(N4CCN(C(C)=O)CC4)c3)[nH]c3ncc(C(=O)OC(C)C)cc23)ccc1C = 1000 to 10000 nM

Looking up "C=CC(=O)Nc1cc(-c2c(-c3cccc(CN4CCN(C(C)=O)CC4)c3)[nH]c3nccc(Cl)c23)ccc1C" , I found its GI50 recorded as 500 to 1000 nM

----------
systemUnderTest: Her2 Exon 20 INSYVMA Ba/F3 (Homo sapiens, UniProt P04626, DUP772-775, cells depend on it)
experimentalProtocol: Her2 Exon 20 INSYVMA Ba/F3 CellTiter-Glo
Format: cell-based
conditionSet: CellTiter-Glo, 72 h, read-out: Her2 Exon 20 INSYVMA Ba/F3 CTG IC50
Reported GI50 by item:

Below, each entry is followed by its recorded GI50 result.
C=CC(=O)Nc1cc(-c2c(-c3ccc(C4CCN(C)CC4)cc3)[nH]c3ncccc23)ccc1C = 100 to 500 nM
C=CC(=O)Nc1cc(-c2c(-c3cccc(C(=O)NC4CC4)c3)[nH]c3nccc(Cl)c23)ccc1C = 500 to 1000 nM
C=CC(=O)Nc1cc(-c2c(-c3cccc(C(=O)N4CCCCCC4)c3)[nH]c3nccc(Cl)c23)ccc1C = 1000 to 10000 nM

Query "C=CC(=O)N1CCOc2ccc(-c3c(-c4ccc(CN(C)C)cc4)[nH]c4nccc(Cl)c34)cc21" yields GI50 of 100 to 500 nM

Briefly, GI50 measured for "C=CC(=O)Nc1cc(-c2c(-c3cccc(OCCCN4CCN(CC)CC4)c3)[nH]c3nccc(Cl)c23)ccc1C" : 100 to 500 nM

GI50 for "C=CC(=O)Nc1cc(-c2c(-c3cccc(N4CCOCC4)c3)[nH]c3nccc(Cl)c23)ccc1C" is 500 to 1000 nM

// sample "C=CC(=O)N1CCc2ccc(-c3c(-c4ccc(OCCCN(C)C)cc4)[nH]c4nccc(Cl)c34)cc21" , its GI50 was 100 to 500 nM

meta.source: patent US20220370440A1
